Recorded below: pKi, system human M5R (Homo sapiens).
pKi is a log-scale quantity: -log10 of the concentration expressed in molar.

Recorded pKi, per entry:
CCCCCC(C(=O)c1ccc2c(c1)OCO2)N1CCCC1 (stereo not drawn)
5.25
CCC(C(=O)c1ccc2c(c1)OCO2)N1CCCC1 (stereo not drawn)
4.74
CCCCC(C(=O)c1ccccc1)N1CCCC1 (stereo not drawn)
5.82
CCCCC(C(=O)c1ccc2c(c1)OCO2)N1CCCC1 (stereo not drawn)
5.10
CCCCC(C(=O)c1ccccc1)N1CCCCCC1 (stereo not drawn)
5.99

Write down measured pKi (human M5R (Homo sapiens)) for this compound. CCCCCC(C(=O)c1ccccc1)N1CCCC1 (stereo not drawn)
5.94

Look up and report measured pKi (human M5R (Homo sapiens)) for the following compound: CCCC(C(=O)c1ccc2c(c1)OCO2)N1CCCC1 (stereo not drawn)
5.20

# assay system human M5R (Homo sapiens): give pKi of CCCC(C(=O)c1ccccc1)N1CCCC1 (stereo not drawn)
5.38

Lab note: human M5R (Homo sapiens) assay, enter pKi for CCCCC(C(=O)c1ccccc1)N1CCCCC1 (stereo not drawn) here
Sequence (P08912 whole entry): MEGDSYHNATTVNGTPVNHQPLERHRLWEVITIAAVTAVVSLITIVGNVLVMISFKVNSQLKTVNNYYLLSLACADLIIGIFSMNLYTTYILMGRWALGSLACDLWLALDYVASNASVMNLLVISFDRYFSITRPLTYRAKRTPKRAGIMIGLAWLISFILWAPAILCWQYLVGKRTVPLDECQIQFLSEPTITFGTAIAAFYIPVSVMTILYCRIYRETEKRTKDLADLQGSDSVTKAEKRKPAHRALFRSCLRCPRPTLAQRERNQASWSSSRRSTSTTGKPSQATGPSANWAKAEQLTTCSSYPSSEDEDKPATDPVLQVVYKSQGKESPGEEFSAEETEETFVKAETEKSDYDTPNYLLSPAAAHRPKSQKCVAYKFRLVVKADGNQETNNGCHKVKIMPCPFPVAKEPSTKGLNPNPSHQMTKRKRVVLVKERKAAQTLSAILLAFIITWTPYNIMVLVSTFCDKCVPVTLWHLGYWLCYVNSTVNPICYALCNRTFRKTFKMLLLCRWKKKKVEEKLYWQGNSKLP
6.17

###

# ASSAYED_TARGET: Serotonin transporter (Rattus norvegicus, UniProt P31652)
# Construct: tissue Eurofins/Cerep (contract testing)
# Sequence (P31652 whole entry): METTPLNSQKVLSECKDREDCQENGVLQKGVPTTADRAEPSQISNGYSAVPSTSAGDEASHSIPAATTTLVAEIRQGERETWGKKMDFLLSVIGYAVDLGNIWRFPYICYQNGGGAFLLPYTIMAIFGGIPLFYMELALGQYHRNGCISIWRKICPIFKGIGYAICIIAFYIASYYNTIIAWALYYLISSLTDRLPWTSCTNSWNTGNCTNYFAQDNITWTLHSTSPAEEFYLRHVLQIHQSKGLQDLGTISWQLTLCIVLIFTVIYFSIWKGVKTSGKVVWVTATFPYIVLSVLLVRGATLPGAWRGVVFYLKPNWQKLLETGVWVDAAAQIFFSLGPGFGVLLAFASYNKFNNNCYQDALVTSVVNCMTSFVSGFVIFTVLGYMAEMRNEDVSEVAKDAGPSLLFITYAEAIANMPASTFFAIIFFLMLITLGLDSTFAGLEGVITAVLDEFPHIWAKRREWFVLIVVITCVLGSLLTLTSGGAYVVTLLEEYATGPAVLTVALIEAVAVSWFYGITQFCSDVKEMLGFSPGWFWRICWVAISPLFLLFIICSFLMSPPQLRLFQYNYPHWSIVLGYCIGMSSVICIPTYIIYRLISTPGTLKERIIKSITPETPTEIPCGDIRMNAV
# EXPERIMENT_SUMMARY: Serotonin transporter uptake (rat brain synaptosomes)
# Lookup of reported pIC50 keyed by entry
pIC50 is defined as minus the log10 of a concentration measured in mol/L.

CCCCC(C(=O)c1ccccc1)N1CCCCCC1 (centres unmarked) [Compound (2), 2-(azepan-1-yl)-1-phenylhexan-1-one]
4.92

Fill in reported pIC50 for this entry: CCCCC(C(=O)c1ccccc1)N1CCCCC1 (centres unmarked) [Compound (1), 1-phenyl-2-(piperidin-1-yl)hexan-1-one]
4.43

###

Below, each entry is listed with its recorded IC50.
# ASSAYED_TARGET: M2 (h) (Homo sapiens)
# EXPERIMENT_SUMMARY: M2 (h) antagonist effect, cAMP HTRF cellular functional assay
Hi! Could you send only the number? It should be in µM, unit omitted.

CCCCC(C(=O)c1ccccc1)N1CCCCCC1 (centres unmarked)
2

--- query ---
Recall and state the measured IC50 for CCCCC(C(=O)c1ccccc1)N1CCCCC1 (centres unmarked) .
1.7

###

# ASSAYED_TARGET: human M1R (Homo sapiens, UniProt P11229)
# Construct: host or cells: HEK293 (CRL-1573, ATCC), transient
# Sequence (P11229 whole entry): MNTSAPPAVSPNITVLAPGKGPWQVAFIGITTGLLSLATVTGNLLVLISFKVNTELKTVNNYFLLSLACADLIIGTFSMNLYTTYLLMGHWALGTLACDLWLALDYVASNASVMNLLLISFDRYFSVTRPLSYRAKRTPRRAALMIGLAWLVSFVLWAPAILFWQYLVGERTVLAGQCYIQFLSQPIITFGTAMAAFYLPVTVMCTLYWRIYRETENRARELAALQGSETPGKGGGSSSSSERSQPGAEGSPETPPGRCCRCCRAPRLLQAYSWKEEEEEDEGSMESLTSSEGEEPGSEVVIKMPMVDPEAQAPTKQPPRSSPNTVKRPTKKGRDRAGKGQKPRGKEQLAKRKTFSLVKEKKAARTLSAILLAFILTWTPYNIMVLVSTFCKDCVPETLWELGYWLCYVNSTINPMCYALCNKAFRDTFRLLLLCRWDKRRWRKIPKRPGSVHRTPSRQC
# EXPERIMENT_SUMMARY: biochemical
# Assay type: binding
# CONDITION_CONTEXT: estimate from 1 and 10 μM screens; read-out: estimated Ki at M1Rs
READOUT_TYPE: pKi
Would you please state pKi, meaning minus log10 of the concentration in mol/L, as a bare number?

Give pKi for the following compound: CCCCC(C(=O)c1ccc2c(c1)OCO2)N1CCCC1 (stereo not shown)
5.44

###

The following molecules are shown together with reported Ki values.
# ASSAYED_TARGET: human M1R (Homo sapiens, UniProt P11229)
# Construct: host or cells: HEK293 (CRL-1573, ATCC), transient
# EXPERIMENT_SUMMARY: biochemical
# Assay type: binding
# CONDITION_CONTEXT: full dose-response [3H]Scopolamine competition binding; α-PPP and α-PBP interpolated; read-out: pKi at M1R (converted)
Numeric only. Scale: µM

// worked examples, Ki included
CCCCCC(C(=O)c1ccccc1)N1CCCC1 (centres unmarked)
1.95
CCCC(C(=O)c1ccccc1)N1CCCC1 (centres unmarked)
5.13
CC(C(=O)c1ccccc1)N1CCCC1 (centres unmarked)
195
CCCCC(C(=O)c1ccccc1)N1CCCC1 (centres unmarked)
1.58

Return reported Ki for target or system human M1R (Homo sapiens, UniProt P11229), item CCC(C(=O)c1ccccc1)N1CCCC1 (centres unmarked) .
75.9

###

# ASSAYED_TARGET: 5-HT transporter (h) (Homo sapiens)
# Sequence (P31645 whole entry): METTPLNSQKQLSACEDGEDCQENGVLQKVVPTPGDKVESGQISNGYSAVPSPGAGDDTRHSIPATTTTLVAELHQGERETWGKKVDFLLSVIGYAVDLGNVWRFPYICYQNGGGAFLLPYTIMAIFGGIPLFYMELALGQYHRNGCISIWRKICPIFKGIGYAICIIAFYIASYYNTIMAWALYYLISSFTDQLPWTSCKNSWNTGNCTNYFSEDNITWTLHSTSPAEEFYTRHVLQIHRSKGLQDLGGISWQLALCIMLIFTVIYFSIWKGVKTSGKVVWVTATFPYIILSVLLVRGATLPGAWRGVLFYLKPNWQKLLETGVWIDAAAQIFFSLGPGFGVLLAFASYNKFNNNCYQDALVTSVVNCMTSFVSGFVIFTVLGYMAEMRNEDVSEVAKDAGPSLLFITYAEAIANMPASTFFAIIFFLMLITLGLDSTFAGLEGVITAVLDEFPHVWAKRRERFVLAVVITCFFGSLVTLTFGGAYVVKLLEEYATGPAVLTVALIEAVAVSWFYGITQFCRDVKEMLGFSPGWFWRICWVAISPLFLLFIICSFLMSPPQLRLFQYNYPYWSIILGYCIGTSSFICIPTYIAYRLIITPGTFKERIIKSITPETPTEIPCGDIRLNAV
pIC50: −log10 of the molar value.
READOUT_TYPE: pIC50

CCCCC(C(=O)c1ccccc1)N1CCCCCC1 (centres unmarked) [Compound (2), 2-(azepan-1-yl)-1-phenylhexan-1-one]
< 4.00

Quickly give me recorded pIC50 for CCCCC(C(=O)c1ccccc1)N1CCCCC1 (centres unmarked) [Compound (1), 1-phenyl-2-(piperidin-1-yl)hexan-1-one]
< 4.00

###

# ASSAYED_TARGET: human M4R (Homo sapiens, UniProt P08173)
# Construct: host or cells: HEK293 (CRL-1573, ATCC), transient
# Sequence (P08173 whole entry): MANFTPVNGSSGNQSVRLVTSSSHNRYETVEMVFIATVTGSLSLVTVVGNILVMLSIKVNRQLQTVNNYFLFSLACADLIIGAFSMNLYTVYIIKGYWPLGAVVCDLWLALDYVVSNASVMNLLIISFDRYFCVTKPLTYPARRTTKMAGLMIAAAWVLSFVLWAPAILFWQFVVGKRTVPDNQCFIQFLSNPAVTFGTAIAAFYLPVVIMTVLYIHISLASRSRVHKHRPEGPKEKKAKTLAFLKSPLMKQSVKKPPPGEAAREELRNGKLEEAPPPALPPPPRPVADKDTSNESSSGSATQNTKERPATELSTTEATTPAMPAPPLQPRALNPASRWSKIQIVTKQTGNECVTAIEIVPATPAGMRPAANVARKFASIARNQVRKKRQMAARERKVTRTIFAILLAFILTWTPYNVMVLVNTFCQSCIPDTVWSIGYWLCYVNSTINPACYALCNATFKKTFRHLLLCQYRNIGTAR
# EXPERIMENT_SUMMARY: [3H]Scopolamine radioligand competition binding at M4R
READOUT_TYPE: Ki (µM)
Write the value in µM as a bare number.

Here is how some compounds turned out for Ki.
CCCCC(C(=O)c1ccc2c(c1)OCO2)N1CCCC1 (stereo not drawn)
12.9
CCCCC(C(=O)c1ccccc1)N1CCCC1 (stereo not drawn)
1.95
CCCC(C(=O)c1ccccc1)N1CCCC1 (stereo not drawn)
8.13

Write down Ki measured for item CCCCCC(C(=O)c1ccc2c(c1)OCO2)N1CCCC1 (stereo not drawn)
33.1

Recall and state the measured Ki for CCCCC(C(=O)c1ccccc1)N1CCCCCC1 (stereo not drawn) .
0.997

Indicate the recorded Ki value for this compound: CCC(C(=O)c1ccc2c(c1)OCO2)N1CCCC1 (stereo not drawn)
10.2

Given CCCC(C(=O)c1ccc2c(c1)OCO2)N1CCCC1 (stereo not drawn) , respond with its Ki.
8.91

Quick one: give measured Ki for CCCCC(C(=O)c1ccccc1)N1CCCCC1 (stereo not drawn)
1.24

Give a short answer stating reported Ki for CCCCCC(C(=O)c1ccccc1)N1CCCC1 (stereo not drawn) .
1.38

###

# ASSAYED_TARGET: human M2R (Homo sapiens)
# Construct: host or cells: HEK293 (CRL-1573, ATCC), transient
# Sequence (P08172 1-466): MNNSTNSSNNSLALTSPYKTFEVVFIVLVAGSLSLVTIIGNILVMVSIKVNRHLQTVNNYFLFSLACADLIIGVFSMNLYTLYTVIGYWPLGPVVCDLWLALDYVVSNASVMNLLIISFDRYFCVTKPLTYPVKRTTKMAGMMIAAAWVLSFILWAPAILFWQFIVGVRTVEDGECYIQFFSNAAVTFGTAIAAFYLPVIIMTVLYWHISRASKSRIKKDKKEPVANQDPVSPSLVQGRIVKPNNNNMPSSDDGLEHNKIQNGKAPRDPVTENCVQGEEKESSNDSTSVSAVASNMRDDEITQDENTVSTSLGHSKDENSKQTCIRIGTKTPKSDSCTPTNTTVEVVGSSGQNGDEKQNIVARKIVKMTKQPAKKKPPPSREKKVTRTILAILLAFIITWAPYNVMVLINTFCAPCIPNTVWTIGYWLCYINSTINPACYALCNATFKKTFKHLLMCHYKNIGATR
# EXPERIMENT_SUMMARY: [3H]Scopolamine radioligand competition binding at M2R
# CONDITION_CONTEXT: estimated pKi at M2R, estimate from 1 and 10 μM concentrations (N = 2); N.C. = <5% displacement of radioligand at 10 μM
READOUT_TYPE: Ki
Form entry: enter the amount, then its unit.

Item CCCCC(C(=O)c1ccc2c(c1)OCO2)N1CCCC1 (centres unmarked) : provide Ki
5.01 µM

Supply measured Ki of CCCCC(C(=O)c1ccccc1)N1CCCC1 (centres unmarked) in your reply.
0.468 µM

Find the measured Ki of CCCC(C(=O)c1ccc2c(c1)OCO2)N1CCCC1 (centres unmarked) and report it.
13.8 µM

Entry CCCCCC(C(=O)c1ccc2c(c1)OCO2)N1CCCC1 (centres unmarked) needs its Ki filled in; supply it.
12 µM

Given CCC(C(=O)c1ccc2c(c1)OCO2)N1CCCC1 (centres unmarked) , respond with its Ki.
12.6 µM

###

# ASSAYED_TARGET: human M3R (Homo sapiens)
# Construct: host or cells: HEK293 (CRL-1573, ATCC), transient
# Sequence (P20309 whole entry): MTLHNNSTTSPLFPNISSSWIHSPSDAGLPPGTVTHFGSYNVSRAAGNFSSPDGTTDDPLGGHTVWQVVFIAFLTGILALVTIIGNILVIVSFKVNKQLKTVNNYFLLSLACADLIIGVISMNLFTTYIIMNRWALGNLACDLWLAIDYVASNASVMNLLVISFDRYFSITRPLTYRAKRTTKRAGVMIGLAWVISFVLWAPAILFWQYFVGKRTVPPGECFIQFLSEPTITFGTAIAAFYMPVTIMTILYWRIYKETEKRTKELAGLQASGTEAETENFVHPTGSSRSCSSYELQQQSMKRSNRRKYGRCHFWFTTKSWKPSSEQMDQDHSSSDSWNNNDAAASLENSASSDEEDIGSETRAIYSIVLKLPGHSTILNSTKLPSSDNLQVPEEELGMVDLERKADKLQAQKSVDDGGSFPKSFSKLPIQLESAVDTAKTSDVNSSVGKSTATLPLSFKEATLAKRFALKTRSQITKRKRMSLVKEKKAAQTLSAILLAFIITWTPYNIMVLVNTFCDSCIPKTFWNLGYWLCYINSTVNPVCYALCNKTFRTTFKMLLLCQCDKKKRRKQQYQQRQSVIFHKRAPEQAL
# EXPERIMENT_SUMMARY: biochemical
# Type: binding
# CONDITION_CONTEXT: human muscarinic M3 (N = 5), [3H]-N-methylscopolamine; read-out: Affinities, Ki ± SEM, nM M3
# Procedure: Radioligand Competition Binding: Radioligand competition binding assays were conducted using membranes collected from transiently transfected HEK293 cells (P<20 from a procured stock, CRL-1573, ATCC, Manassas, Va., USA) as previously described (Chen, Y., et al. Drug Test Anal 11, 990-998). […] Radioactivity was measured in a Microbeta2 Microplate Counter (Perkin Elmer, Waltham, Mass., USA), and counts per minute corresponding to each well on the plates were recorded. […]
READOUT_TYPE: Ki (nM)
Give just the numeric value; nM need not be written.

CCCCC(C(=O)c1ccccc1)N1CCCCC1 (centres unmarked)
994

Now let's try a different one.
Fetch value of Ki on human M3R (Homo sapiens) for CCCCC(C(=O)c1ccccc1)N1CCCCCC1 (centres unmarked) .
988
